Each entry below lists one item and its recorded TGI value.
System: MALME-3M melanoma
Assay: NCI tumour cell line growth inhibition, 48 h
Numeric only. Scale: µM

molecule	assay-system	TGI [µM]
O=C(Nc1ccc(Cl)cc1Cl)/C(Cl)=C1/Sc2ccccc2NC1=O	MALME-3M melanoma	77.9
Cc1cc(Cl)ccc1Nc1nc(C(F)(F)F)ccc1C(=O)N/N=C/c1ccc(F)cc1	MALME-3M melanoma	4.7

Entry CN(C)CCOc1cccc(NC2=C(Cl)C(=O)C(Nc3cccc(OCCN(C)C)c3)=C(Cl)C2=O)c1 , MALME-3M melanoma data, TGI value: 0.827

Record C/C(=C\c1ccc2c(c1)OCO2)[N+](=O)[O-] has MALME-3M melanoma TGI equal to 5.68

Readout TGI for Cc1ccc2cccc(OC(=O)c3cc4c(cc3Cl)Sc3nccn3S4(=O)=O)c2n1 , test system MALME-3M melanoma, was 47.4

* * *

Test system: NCI/ADR-RES ovarian
Test: NCI tumour cell line growth inhibition, 48 h
Quick rule for you: TGI at 30 µM or higher means satisfied, lower means not satisfied.

Lookup: Tell me whether TGI is at least 30 µM here: Cc1cc(Cl)ccc1Nc1nc(C(F)(F)F)ccc1C(=O)N/N=C/c1ccc(F)cc1
Found: not satisfied

Lookup: Check this compound for TGI at or above 30 µM: COc1ccc2c(c1)c(=O)oc1cc(OC/C(=N\O)c3ccc(F)cc3)ccc12
Found: satisfied

Lookup: Evaluate N#CC(C#N)=Cc1ccc(-c2ccc(-c3nc4ccccc4s3)cc2)s1 : TGI at minimum 30 µM?
Found: not satisfied

Lookup: API: above_or_equal(metric=TGI, cutoff=30 µM) for item Nc1nc(Cl)nc2c1ncn2C1CCC(CO)O1 (stereo not drawn)
Found: satisfied

Lookup: Has Clc1cccc(Cc2cn3cc(-c4ccccc4)nc3s2)c1 a recorded TGI greater than or equal to 30 µM?
Found: satisfied

Lookup: Does COc1ccc(/C=C2\CCCC3=C2N=C2SC=NN2C3c2ccc(OC)c(OC)c2)cc1OC (stereo not drawn) have a reported TGI of at least 30 µM?
Found: satisfied

Lookup: Please tell me: is the compound O=C(NC1CCN(Cc2ccccc2)CC1)c1ccccc1I at or over 30 µM in terms of TGI?
Found: satisfied

Lookup: Determine whether measured TGI meets or exceeds 30 µM for O=C(NO)c1ccc(OCc2ccccc2)cc1
Found: satisfied

* * *

Tested on: SK-MEL-28 melanoma
Test: NCI tumour cell line growth inhibition, 48 h
reported-endpoint: TGI

compound	assay-system	TGI
Cc1ccc(OCCn2cc(Nc3ccccc3)c(=O)[nH]c2=O)cc1	SK-MEL-28 melanoma	> 100 µM

Data point: COC(=O)C1CCc2nnc(-c3cccnc3)n21 (stereo not drawn) ; TGI = > 100 µM

The reported TGI of the compound COC(=O)c1c/c(=N\NC(=O)CC(=O)Nc2ccc(C)cc2)c2ccccc2o1 was > 100 µM

* * *

System: CAKI-1 renal
Assay: NCI tumour cell line growth inhibition, 48 h
TGI overview

A selection of reference data follows.
compound	assay-system	TGI
COc1ccc(N=C2C(=Nc3ccc(OC)cc3)N(c3ccccc3[N+](=O)[O-])C(=S)N2c2ccc(OC)cc2)cc1	CAKI-1 renal	> 100 µM
COC(=O)C1CCc2nnc(-c3cccnc3)n21 (stereo not given)	CAKI-1 renal	> 100 µM
Clc1ccc(N=Cc2cc3cc(Br)ccc3nc2Cl)cc1	CAKI-1 renal	> 50 µM
COc1cc(CNC(=O)CCCCCCCCCCSSCCCCCCCCCCC(=O)NCc2ccc(O)c(OC)c2)ccc1O	CAKI-1 renal	> 10 µM
COc1cc(OC)nc(NC(=O)NS(=O)(=O)c2cccc3ncn(C)c(=O)c23)n1	CAKI-1 renal	> 100 µM

// TGI (CAKI-1 renal) for O=C(O)c1cn(C2CC2)c2cc(N3CCN(C(=O)Nc4nc(-c5ccc(Cl)cc5)cs4)CC3)c(F)cc2c1=O = > 100 µM

// TGI (CAKI-1 renal) for O=[N+]([O-])c1ccc(C2N3CCCCC3[C@@H]3c4[nH]c5ccccc5c4CCN23)cc1 (stereo not given in full) = > 100 µM

Item CCOC(=O)C(SCCO)C(C(=O)OCC)n1cc(C)c(=O)[nH]c1=O (stereo not given) ; assay system CAKI-1 renal; TGI reported as 18.2 µM

Reading of TGI for O=C(CN1CCCC1)Nc1ccc2sc3ccccc3c(=O)c2n1 with CAKI-1 renal: 47.1 µM

Reading of TGI for CN(C)C1COC2Cc3ccccc3C1O2 (stereo not given) with CAKI-1 renal: > 100 µM
